Measured EC50 value of cell killing activity in Huh7 cells, listed per entry.
- studySystem: human GPC3 (Glypican-3) (human, UniProt P51654 25-580)
- Sequence (P51654 25-580, form in doubt): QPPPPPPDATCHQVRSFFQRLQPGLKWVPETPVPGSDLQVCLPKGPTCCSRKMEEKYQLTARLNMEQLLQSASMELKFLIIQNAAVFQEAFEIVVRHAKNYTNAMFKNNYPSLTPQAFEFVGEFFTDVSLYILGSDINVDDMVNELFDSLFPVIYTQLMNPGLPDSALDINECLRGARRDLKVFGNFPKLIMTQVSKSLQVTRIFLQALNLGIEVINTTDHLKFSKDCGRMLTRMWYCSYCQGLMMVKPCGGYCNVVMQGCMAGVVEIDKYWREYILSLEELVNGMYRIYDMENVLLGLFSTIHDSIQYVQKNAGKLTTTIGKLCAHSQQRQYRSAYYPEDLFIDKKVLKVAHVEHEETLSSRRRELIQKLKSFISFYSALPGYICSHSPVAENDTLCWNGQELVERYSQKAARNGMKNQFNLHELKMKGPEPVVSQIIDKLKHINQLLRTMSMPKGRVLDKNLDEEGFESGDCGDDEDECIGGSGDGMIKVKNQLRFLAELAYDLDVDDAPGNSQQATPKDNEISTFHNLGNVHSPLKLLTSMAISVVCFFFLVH
- assayExplanation: cell-based or functional assay
measuredMetric: EC50 value of cell killing activity in Huh7 cells (µg/mL)

INSERT INTO assay_data (binder, unitssymbol, reportedmeasurement) VALUES
  ('Hu 52H5D3B8-8-MCC-AA-(3-cyano-L-alanine)-Exatecan (ADC-8) (antibody, human IgG1, kappa, DAR 8.0, V domains shown, mcc-Ala-Ala-(3-cyano-L-alanine)-Exatecan on cysteine thiols freed by reduction of interchain disulfide bonds; DAR 8.0 for the whole antibody; positions not given) VH: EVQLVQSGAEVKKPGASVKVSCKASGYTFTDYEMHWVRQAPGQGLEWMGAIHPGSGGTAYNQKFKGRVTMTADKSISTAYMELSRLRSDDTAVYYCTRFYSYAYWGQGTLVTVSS VL: DVVMTQTPLSLSVTPGQPASISCRSSQSLVHSNGNTYLQWYLQKPGQSPQLLIYKVSNRFSGVPDRFSGSGSGTDFTLKISRVEAEDVGVYFCSQSIHVPYTFGGGTKVEIKR', 'µg/mL', 0.00734),
  ('Hu 52H5D3B8-7-mcc-AAQ-Exatecan (ADC-5) (antibody, human IgG1, kappa, DAR 7.9, V domains shown, mcc-AAQ-Exatecan on cysteine thiols freed by reduction of interchain disulfide bonds; DAR 7.9 for the whole antibody; positions not given) VH: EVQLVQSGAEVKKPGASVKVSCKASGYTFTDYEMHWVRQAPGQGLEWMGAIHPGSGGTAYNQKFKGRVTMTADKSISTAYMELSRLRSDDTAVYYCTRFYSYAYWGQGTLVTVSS VL: DVVMTQTPLSLSVTPGQPASISCRSSQSLVHSNGNTYLQWYLQKPGQSPQLLIYKVSNRFSGVPDRFSGSGSGTDFTLKISRVEAEDVGVYYCSQSIHVPYTFGGGTKVEIKR', 'µg/mL', 0.0164),
  ('Hu 52H5D3B8-8-mcc-AAQ-Exatecan (ADC-4) (antibody, human IgG1, kappa, DAR 8.0, V domains shown, mcc-AAQ-Exatecan on cysteine thiols freed by reduction of interchain disulfide bonds; DAR 8.0 for the whole antibody; positions not given, also called Hu 52H5D3B8-8-MCC-AAQ-Exa (ADC-4)) VH: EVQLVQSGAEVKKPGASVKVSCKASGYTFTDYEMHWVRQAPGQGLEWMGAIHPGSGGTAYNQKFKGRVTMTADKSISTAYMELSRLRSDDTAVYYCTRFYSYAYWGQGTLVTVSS VL: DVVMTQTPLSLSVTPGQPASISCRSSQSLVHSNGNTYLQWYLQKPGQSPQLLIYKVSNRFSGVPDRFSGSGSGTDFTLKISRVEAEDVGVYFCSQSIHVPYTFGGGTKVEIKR', 'µg/mL', 0.0149),
  ('Hu 52H5D3B8-7-mcc-AAQ-Exatecan (ADC-7) (antibody, human IgG1, kappa, DAR 4.0, V domains shown, mcc-AAQ-Exatecan on cysteine thiols freed by partial reduction of interchain disulfide bonds; DAR 4.0 for the whole antibody; positions not given) VH: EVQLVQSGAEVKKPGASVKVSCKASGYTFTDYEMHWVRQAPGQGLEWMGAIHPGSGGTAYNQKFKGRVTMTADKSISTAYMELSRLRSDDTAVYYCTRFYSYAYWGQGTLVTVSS VL: DVVMTQTPLSLSVTPGQPASISCRSSQSLVHSNGNTYLQWYLQKPGQSPQLLIYKVSNRFSGVPDRFSGSGSGTDFTLKISRVEAEDVGVYYCSQSIHVPYTFGGGTKVEIKR', 'µg/mL', 0.0279);
